RUN DESCRIPTION: folding enthalpy; higher = less favourable; fluorescence melt of hairpins on a sequencing array, two-state fit
CONDITIONS: sodium 0.088 M
Measured folding enthalpy, listed per entry for reference.
RECORDED ENDPOINT: folding enthalpy (kcal/mol)

>>> df
                           entry_sequence  value
 0      GATCAGGTATCTGATC ((((((....))))))  -40.8
 1  GTCAGCGAAAGCTCGGAC ((((((....)))..)))  -12.4
 2  GTGTAACCGAAAGGTCAC (((..(((....))))))  -22.6
 3  GCTTTGGGAAACCGAAGC ((((.((....)).))))  -39.5
 4  GACCCACGAAAGTGAGTC (((.(((....))).)))  -31.2
 5  GCAGCGCGAAAGCTCCGC ((.(.((....)).).))  -11.6
 6  GCCGACGCGAAAGCGGGC (((..(((....))))))  -18.1
 7      GAAAGCGAAAGCTTTC ((((((....))))))  -34.9
 8      GATCTGCCGGCAGATC ((((((....))))))  -53.3
 9    GGTACCGAAAGGTAACC ((((((....))).)))  -26.9
10      GATCTAGGCTTAGATC ((((((....))))))  -38.4
11  GTTCACGGAAACGTGAGC (.(((((....))))).)  -22.2
